Readings of pIC50 for the listed compounds
MEASURED_ON: hMAO-B (Homo sapiens, UniProt P27338)
Sequence (P27338 whole entry): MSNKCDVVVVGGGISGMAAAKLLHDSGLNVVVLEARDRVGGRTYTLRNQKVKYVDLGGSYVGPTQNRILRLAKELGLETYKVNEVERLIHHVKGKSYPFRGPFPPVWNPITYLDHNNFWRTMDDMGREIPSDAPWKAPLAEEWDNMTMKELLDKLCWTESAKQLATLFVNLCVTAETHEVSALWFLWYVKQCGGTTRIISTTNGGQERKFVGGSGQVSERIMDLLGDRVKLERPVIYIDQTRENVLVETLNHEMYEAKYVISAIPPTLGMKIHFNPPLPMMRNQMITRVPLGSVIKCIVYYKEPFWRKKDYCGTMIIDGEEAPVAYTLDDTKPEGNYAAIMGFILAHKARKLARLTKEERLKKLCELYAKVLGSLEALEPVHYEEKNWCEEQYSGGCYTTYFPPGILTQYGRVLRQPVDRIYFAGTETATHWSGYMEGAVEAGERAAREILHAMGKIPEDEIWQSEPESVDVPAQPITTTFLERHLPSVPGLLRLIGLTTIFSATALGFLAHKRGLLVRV
PROCEDURE_TEXT: biochemical
TEST_SETTINGS: human recombinant MAO-B, kynuramine, 37 °C, pH 7.4, n = 3; read-out: hMAO-B IC50 ± SEM
pIC50 here: minus log base 10 of the concentration, concentration in moles per litre.

Previously resolved entries follow.
COc1cccc(N2CCN(CCCOc3cc(C)cc4oc(=O)cc(C)c34)CC2)c1 : 5.73
COc1cccc(N2CCN(CCCCOc3cc(C)cc4oc(=O)cc(C)c34)CC2)c1 : 5.50
COc1ccccc1N1CCN(CCCOc2ccc3c(C)cc(=O)oc3c2C(C)=O)CC1 : 5.32

Attention now shifts to the item below.
Ask: # input compound: "COc1ccccc1N1CCN(CCCOc2cc(C)cc3oc(=O)cc(C)c23)CC1" ; wanted: its pIC50
Result: 5.66
